- assayText: probe aCHRDL2 binding to arrayed compounds – biochemical, biotinylated probe, 635/667 nm fluorescence, primary screen (AID 1100)
- conditionDetails: small-molecule microarray, higher = more signal
Binning of composite z-score into classes: Low: < 0.5; Mid: ≥ 0.5 and < 1; High: ≥ 1

OCC1C=C(/C=C/c2ccccc2)CN1Cc1ccccc1Br (configuration not stated) = Low
CCCC1(C(=O)OC)C=C2C(=C(c3ccccc3)C(=O)C2C)CN1 (configuration not stated) = High
O=C(NCCN1CCOCC1)[C@@H]1c2ccccc2C(=O)N(Cc2cc(C(F)(F)F)cc(C(F)(F)F)c2)[C@H]1c1ccc(CO)cc1 = Mid
CN(C)CCCC[C@@H]1NC(=O)[C@H]2C[C@@H](C(=O)NCCCCCN)[C@@H](c3cccc(OCCO)c3)N2C1=O = High
CCOC(=O)C[C@H]1[C@H](OC(=O)c2ccc(C(=O)c3ccccc3)cc2)[C@@H](NC(=O)c2ccccc2)c2cc(OCCCO)ccc2N1C(=O)c1ccccc1 = Low
[N-]=[N+]=Nc1ccccc1C[C@]1(C(=O)N2CCCCC2)COC(c2ccc(OCCCO)cc2)=N1 = Mid
O=C1C2C=CC(C(O)c3c(F)cccc3Cl)N(Nc3ccccc3F)C2C(=O)N1c1ccccc1 (configuration not stated) = High
CCOC(=O)C1=CC[C@@H](c2ccc(C(F)(F)F)cc2)N(S(=O)(=O)c2ccc(C)cc2)[C@H]1c1ccccc1 = High
CC(C)(C)OC(=O)CC[C@@]1(C(=O)N2CCCCC2)N=C(c2ccc(OCCCO)cc2)O[C@@H]1c1ccccc1 = Low

Now let's try a different one.
Problem: Band of CCOC(=O)C[C@H]1[C@H](OC(=O)c2ccc(C(=O)c3ccccc3)cc2)[C@@H](NC(=O)Cc2ccc(OC)cc2)c2cc(OCCCO)ccc2N1C(=O)c1ccc2ccccc2n1 ?
Result: Low
